Entry source: ChEMBL document CHEMBL2440076

Provide the recorded LC50 (concentration killing 50% of cells) for the entries that follow.
- System: OVCAR-4
- assayComment: Growth inhibition of human OVCAR4 cells after 48 hrs by sulforhodamine B assay
- Type: functional
- experimentalParameters: OVCAR-4, 48 h

A selection of reference data follows.
>>> print(df.to_string())
                             chemicalsmiles  reportedmeasurement
0  COc1cc(-c2nn(-c3cccc(NC(=O)c4cccc(C(F)(F)F)c4)c3)cc2-c2ccncc2)ccc1Cl              > 50 µM
1  O=C(Nc1cccc(-n2cc(-c3ccncc3)c(-c3ccc(Cl)c(O)c3)n2)c1)Nc1cc(C(F)(F)F)cc(C(F)(F)F)c1              23.9 µM

# per-item lookup of LC50 (concentration killing 50% of cells); items listed below
1. O=C(Nc1cccc(-n2cc(-c3ccncc3)c(-c3ccc(Cl)c(O)c3)n2)c1)Nc1ccc(Cl)c(Cl)c1
2. COc1cc(-c2nn(-c3cccc(NC(=O)Nc4ccc(Cl)c(Cl)c4)c3)cc2-c2ccncc2)ccc1Cl

Out:
1: > 32.5 µM; 2: > 50 µM

In: Please give measured LC50 (concentration killing 50% of cells) of the following entry: COc1cc(-c2nn(-c3cccc(NC(=O)c4ccc(Cl)c(C(F)(F)F)c4)c3)cc2-c2ccncc2)ccc1Cl
Out: > 32.5 µM

====

- Tested on: RXF 393
- assayComment: Growth inhibition of human RXF393 cells after 48 hrs by sulforhodamine B assay
- Type: functional
- experimentalParameters: RXF 393, 48 h
Threshold 800 nM: GI50 strictly smaller gives YES, otherwise NO.

Field: example entries. Status: answers known.
>>> print(df.to_string())
                             chemicalsmiles      tgt  cat
0  O=C(Nc1cccc(-n2cc(-c3ccncc3)c(-c3ccc(Cl)c(O)c3)n2)c1)Nc1ccc(Cl)c(Cl)c1  RXF 393   NO
1  COc1cc(-c2nn(-c3cccc(NC(=O)Nc4ccc(Cl)c(Cl)c4)c3)cc2-c2ccncc2)ccc1Cl  RXF 393   NO
2  COc1cc(-c2nn(-c3cccc(NC(=O)Nc4ccc(Cl)c(C(F)(F)F)c4)c3)cc2-c2ccncc2)ccc1Cl  RXF 393   NO

Switching to the query record.
In: Determine whether this compound shows GI50 lower than 800 nM (ties excluded): COc1cc(-c2nn(-c3cccc(NC(=O)c4ccccc4)c3)cc2-c2ccncc2)ccc1Cl
Out: YES

====

- Test system: RPMI-8226
- assayComment: Growth inhibition of human RPMI8226 cells after 48 hrs by sulforhodamine B assay
- Assay type: functional, cell-based
- experimentalParameters: RPMI-8226, 48 h
valueKind: TGI

>>> print(df.to_string())
                             chemicalsmiles  valuekind  reportedmeasurement
0  COc1cc(-c2nn(-c3cccc(NC(=O)Nc4cc(C(F)(F)F)cc(C(F)(F)F)c4)c3)cc2-c2ccncc2)ccc1Cl        TGI              > 50 µM
1  COc1cc(-c2nn(-c3cccc(NC(=O)c4ccc(N5CCOCC5)c(C(F)(F)F)c4)c3)cc2-c2ccncc2)ccc1Cl        TGI             > 100 µM

We next turn to a different compound, shown below.
In: Give reported TGI for O=C(Nc1cccc(-n2cc(-c3ccncc3)c(-c3ccc(Cl)c(O)c3)n2)c1)Nc1cc(C(F)(F)F)cc(C(F)(F)F)c1 (RPMI-8226)
Out: > 50 µM
